Biological target: T1, human IL-18 binding protein (human, UniProt O95998 31-194)
T1 sequence (looked up): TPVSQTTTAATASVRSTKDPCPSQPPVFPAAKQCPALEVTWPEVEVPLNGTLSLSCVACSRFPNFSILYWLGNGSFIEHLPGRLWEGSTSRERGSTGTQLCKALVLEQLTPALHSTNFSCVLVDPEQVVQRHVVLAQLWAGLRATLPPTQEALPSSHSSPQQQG
Assay: cell-based or functional assay
Please note: T applies when HEK-Blue activity, +100 nM BP, DF-10000 is 0.7 or greater, and F applies otherwise.

>>> assigned_class("yeast display IL-18 variant K53T, S55P (ligand) YFGKLESKLSVIRNLNDQVLFIDQGNRPLFEDMTDSDMRDNAPRTIFIISMYTDPQPRGMAVTISVKSEKISTLSSENKIISFKEMNPPDNIKDTKSDIIFFQRSVPGHDNKMQFESSSYEGYFLASEKERDLFKLILKKEDELGDRSIMFTVQNED")
"T"
>>> assigned_class("yeast display IL-18 variant K53S, S55Y (ligand) YFGKLESKLSVIRNLNDQVLFIDQGNRPLFEDMTDSDMRDNAPRTIFIISMYSDYQPRGMAVTISVKSEKISTLSSENKIISFKEMNPPDNIKDTKSDIIFFQRSVPGHDNKMQFESSSYEGYFLASEKERDLFKLILKKEDELGDRSIMFTVQNED")
"T"
>>> assigned_class("yeast display IL-18 variant K53Y, S55G (ligand) YFGKLESKLSVIRNLNDQVLFIDQGNRPLFEDMTDSDMRDNAPRTIFIISMYYDGQPRGMAVTISVKSEKISTLSSENKIISFKEMNPPDNIKDTKSDIIFFQRSVPGHDNKMQFESSSYEGYFLASEKERDLFKLILKKEDELGDRSIMFTVQNED")
"F"
>>> assigned_class("yeast display IL-18 variant K53Y, S55Y (ligand) YFGKLESKLSVIRNLNDQVLFIDQGNRPLFEDMTDSDMRDNAPRTIFIISMYYDYQPRGMAVTISVKSEKISTLSSENKIISFKEMNPPDNIKDTKSDIIFFQRSVPGHDNKMQFESSSYEGYFLASEKERDLFKLILKKEDELGDRSIMFTVQNED")
"F"
>>> assigned_class("yeast display IL-18 variant T34I, S36V, D40I, N41M, K53G, S55Y (ligand) YFGKLESKLSVIRNLNDQVLFIDQGNRPLFEDMIDVDMRIMAPRTIFIISMYGDYQPRGMAVTISVKSEKISTLSSENKIISFKEMNPPDNIKDTKSDIIFFQRSVPGHDNKMQFESSSYEGYFLASEKERDLFKLILKKEDELGDRSIMFTVQNED")
"F"
>>> assigned_class("yeast display IL-18 variant K53N, S55I (ligand) YFGKLESKLSVIRNLNDQVLFIDQGNRPLFEDMTDSDMRDNAPRTIFIISMYNDIQPRGMAVTISVKSEKISTLSSENKIISFKEMNPPDNIKDTKSDIIFFQRSVPGHDNKMQFESSSYEGYFLASEKERDLFKLILKKEDELGDRSIMFTVQNED")
"F"

All figures here come from patent US20240182536A1.
